- ASSAY_SYSTEM: T1, RBFOX1 RRM (Homo sapiens, UniProt Q9NWB1 109-208)
- T1 sequence: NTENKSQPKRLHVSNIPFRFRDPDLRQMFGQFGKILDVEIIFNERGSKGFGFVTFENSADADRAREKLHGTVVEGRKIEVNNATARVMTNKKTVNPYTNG
- EXPERIMENTAL_DETAILS: EMSA; HiTS-Eq, 1 nM pool, 10 min; buffer printed only for the single-RNA assays: 10 mM Tris pH 7.5, 150 mM NaCl, 3.4 mM EDTA, 0.001% NP-40, 30 C
- REPORTED_CONDITIONS: tags: His6 N-terminal (pET28a); label: 5' 32P
Whole data set: some 16,000 sequences, median “ka relative to ugcaugu” near 0.0091, cut for the highest 2% near 0.032. The full list was thinned out, with the highest values kept by preference.
PROPERTY: binding signal

* UAGAGGG (DNA:RNA) RNA: GGGAGACCGGAAUUCAGAUUGUCCUAGAGGGUUAAAUCCCGUCGUAGCCACCA DNA 1: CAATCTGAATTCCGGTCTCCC DNA 2: TGGTGGCTACGACGGGATT | 0.00669 KA relative to UGCAUGU

Kindly consider the entry below.
# query: binding signal of entry CGUAUGC (DNA:RNA) RNA: GGGAGACCGGAAUUCAGAUUGUCCCGUAUGCUUAAAUCCCGUCGUAGCCACCA DNA 1: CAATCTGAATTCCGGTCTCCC DNA 2: TGGTGGCTACGACGGGATT
0.014 KA relative to UGCAUGU
